Where do these numbers come from? They come from patent US20220259593A1.

tested on: K562 CRISPRi cells; experiment: Constant region variant library pooled growth screen, K562; assay type: cell-based, human; details: sgRNA constant region variants; activity relative to the original, un-modified constant region cr995
TEST READOUT: Mean relative activity
// keep it numeric: no unit symbol after the value

Give me measured Mean relative activity, please, for this molecule: cr407 (nucleic acid, listed as DNA, chemistry not fully specified) guide: GTTTAAGAGCTAAGCTGGAAACAGCATAGCAAGTTTAAATAAGCCTAGTGCGTTATCAACCTGAAAAGGTGGCATCGAGTCGATGCT
0.8278

Give me measured Mean relative activity, please, for this molecule: cr759 (nucleic acid, listed as DNA, chemistry not fully specified) guide: GTTTAAGAGCTAAGCTGGAAACAGCATAGCAAGTTTAAATAAGGCTCGTCCGTTATCAACTTGAGAAAGTGGCACCGAGTCGGTGCT
0.8842

Give me measured Mean relative activity, please, for this molecule: cr363 (nucleic acid, listed as DNA, chemistry not fully specified) guide: GTTTAAGAGCTAAGCTGGAAACAGCATAGCAAGTTTAAATAAGGCTAGTCCGTTATCAATTCGAAAGAATGGCACCGAGTCGGTGCT
1.07

Give me measured Mean relative activity, please, for this molecule: cr396 (nucleic acid, listed as DNA, chemistry not fully specified) guide: GTTTAAGAGCTAAGCTGGAAACAGCATAGCAAGTTTAAATAAGGCTAGTCCGTTATCAACTTGAAAAAGTGGCAACAAGTTGTTGCT
0.8826

Give me measured Mean relative activity, please, for this molecule: cr358 (nucleic acid, listed as DNA, chemistry not fully specified) guide: GTTTAAGAGCTAAGCTGGAAACAGCATAGCAAGTTTAAATAAGGTTAATCCGTTATCAAGTTGAAAAACTGGCACTGAGTCAGTGCT
0.886

Give me measured Mean relative activity, please, for this molecule: cr477 (nucleic acid, listed as DNA, chemistry not fully specified) guide: GTTTAAGAGCTAAGCTGGAAACAGCATAGCAAGTTTAAATAAGGCTAGTCCGTTACCAACTTGAAAAAGTGGCACCGAGTCGGTGCT
1.055

Give me measured Mean relative activity, please, for this molecule: cr484 (nucleic acid, listed as DNA, chemistry not fully specified) guide: GTTTAAGAGCTAAGCTGGAAACAGCATAGCAAGTTTAAATAAGGCTAGTCCGTTATCAACTTGAAAAAGTGCCACCAAGTTGGTGGT
0.7978

Give me measured Mean relative activity, please, for this molecule: cr885 (nucleic acid, listed as DNA, chemistry not fully specified) guide: GTTTAAGAGCTAAGCTGGAAACAGCATAGCCAGTTTAAATAAGGCTAGTCCGTTATCAACTTGAAAAAGTTGCACCGAGTCGGTGCT
0.6498

Give me measured Mean relative activity, please, for this molecule: cr936 (nucleic acid, listed as DNA, chemistry not fully specified) guide: GTTTAAGAGCTAAGCTGGAAACAGCATAGCAAGTTTAAATAAGGCTAGTCCGTTATCAACTTGAAAAAGTGTCACCGAGTCGGTGAT
1.072

Give me measured Mean relative activity, please, for this molecule: cr357 (nucleic acid, listed as DNA, chemistry not fully specified) guide: GTTTAAGAGCTAAGCTGGAAACAGCATAGCAAGGTTAAATAAGGCTAGTCCGTTATCAACTTGAAAAAGTGGCTCCGAGTCGGAGCT
0.03253

Give me measured Mean relative activity, please, for this molecule: cr495 (nucleic acid, listed as DNA, chemistry not fully specified) guide: GTTTAAGAGCTAAGCTGGAAACAGCATAGCAAGTTTAAATAAGGCTAGTCCGTTATCAACTTGAAAAAGTGGCACCGAGACGGTGCT
0.8462

Give me measured Mean relative activity, please, for this molecule: cr787 (nucleic acid, listed as DNA, chemistry not fully specified) guide: GTTTAAGAGCTAAGCTGGAAACAGCATAGCAACTTTAAATAACGCTAGTCGGTTATCAACTTGAAAAAGTGGCACCGAGTCGGTGCT
0.0008483

Give me measured Mean relative activity, please, for this molecule: cr034 (nucleic acid, listed as DNA, chemistry not fully specified) guide: GCATAAGAGCTAAGCTGGAAACAGCATAGCAAGTTTAAATAAGGCTAGTCCGTTATCAACTTGAAAAAGTGGCACCGAGTCGGTGCT
−0.007191

Give me measured Mean relative activity, please, for this molecule: cr451 (nucleic acid, listed as DNA, chemistry not fully specified) guide: GTTTAAGAGCTAAGCTGGAAACAGCATAGCAAGTTTAAATAAGGATATTCCGTTATCAACTTGAAAAAGTGGCTCCGAGTCGGAGCT
0.6053
